Tested on: A388
protocol details: ONCOLINES Profiler proliferation
Format: cell-based
conditions used: A388, epidermal carcinoma
measurement type: pIC50
Numbers only, as −log10 of the molar value.

Input line: Looking for the measured pIC50 of CN1CCOc2ccc(cc2)C(=O)NCc2ccc(F)c(c2)C(=O)N[C@@H](CC(C)(C)C)C(=O)Nc2ccc(cc2)CCN(C)C(=O)CC(C)(C)CC1=O [Compound 7A] , can you help?
Output line: 5.62

---

Give KS for every item shown.
measurement target: USP9X (Homo sapiens (Human), UniProt Q93008)
Sequence (Q93008 whole entry): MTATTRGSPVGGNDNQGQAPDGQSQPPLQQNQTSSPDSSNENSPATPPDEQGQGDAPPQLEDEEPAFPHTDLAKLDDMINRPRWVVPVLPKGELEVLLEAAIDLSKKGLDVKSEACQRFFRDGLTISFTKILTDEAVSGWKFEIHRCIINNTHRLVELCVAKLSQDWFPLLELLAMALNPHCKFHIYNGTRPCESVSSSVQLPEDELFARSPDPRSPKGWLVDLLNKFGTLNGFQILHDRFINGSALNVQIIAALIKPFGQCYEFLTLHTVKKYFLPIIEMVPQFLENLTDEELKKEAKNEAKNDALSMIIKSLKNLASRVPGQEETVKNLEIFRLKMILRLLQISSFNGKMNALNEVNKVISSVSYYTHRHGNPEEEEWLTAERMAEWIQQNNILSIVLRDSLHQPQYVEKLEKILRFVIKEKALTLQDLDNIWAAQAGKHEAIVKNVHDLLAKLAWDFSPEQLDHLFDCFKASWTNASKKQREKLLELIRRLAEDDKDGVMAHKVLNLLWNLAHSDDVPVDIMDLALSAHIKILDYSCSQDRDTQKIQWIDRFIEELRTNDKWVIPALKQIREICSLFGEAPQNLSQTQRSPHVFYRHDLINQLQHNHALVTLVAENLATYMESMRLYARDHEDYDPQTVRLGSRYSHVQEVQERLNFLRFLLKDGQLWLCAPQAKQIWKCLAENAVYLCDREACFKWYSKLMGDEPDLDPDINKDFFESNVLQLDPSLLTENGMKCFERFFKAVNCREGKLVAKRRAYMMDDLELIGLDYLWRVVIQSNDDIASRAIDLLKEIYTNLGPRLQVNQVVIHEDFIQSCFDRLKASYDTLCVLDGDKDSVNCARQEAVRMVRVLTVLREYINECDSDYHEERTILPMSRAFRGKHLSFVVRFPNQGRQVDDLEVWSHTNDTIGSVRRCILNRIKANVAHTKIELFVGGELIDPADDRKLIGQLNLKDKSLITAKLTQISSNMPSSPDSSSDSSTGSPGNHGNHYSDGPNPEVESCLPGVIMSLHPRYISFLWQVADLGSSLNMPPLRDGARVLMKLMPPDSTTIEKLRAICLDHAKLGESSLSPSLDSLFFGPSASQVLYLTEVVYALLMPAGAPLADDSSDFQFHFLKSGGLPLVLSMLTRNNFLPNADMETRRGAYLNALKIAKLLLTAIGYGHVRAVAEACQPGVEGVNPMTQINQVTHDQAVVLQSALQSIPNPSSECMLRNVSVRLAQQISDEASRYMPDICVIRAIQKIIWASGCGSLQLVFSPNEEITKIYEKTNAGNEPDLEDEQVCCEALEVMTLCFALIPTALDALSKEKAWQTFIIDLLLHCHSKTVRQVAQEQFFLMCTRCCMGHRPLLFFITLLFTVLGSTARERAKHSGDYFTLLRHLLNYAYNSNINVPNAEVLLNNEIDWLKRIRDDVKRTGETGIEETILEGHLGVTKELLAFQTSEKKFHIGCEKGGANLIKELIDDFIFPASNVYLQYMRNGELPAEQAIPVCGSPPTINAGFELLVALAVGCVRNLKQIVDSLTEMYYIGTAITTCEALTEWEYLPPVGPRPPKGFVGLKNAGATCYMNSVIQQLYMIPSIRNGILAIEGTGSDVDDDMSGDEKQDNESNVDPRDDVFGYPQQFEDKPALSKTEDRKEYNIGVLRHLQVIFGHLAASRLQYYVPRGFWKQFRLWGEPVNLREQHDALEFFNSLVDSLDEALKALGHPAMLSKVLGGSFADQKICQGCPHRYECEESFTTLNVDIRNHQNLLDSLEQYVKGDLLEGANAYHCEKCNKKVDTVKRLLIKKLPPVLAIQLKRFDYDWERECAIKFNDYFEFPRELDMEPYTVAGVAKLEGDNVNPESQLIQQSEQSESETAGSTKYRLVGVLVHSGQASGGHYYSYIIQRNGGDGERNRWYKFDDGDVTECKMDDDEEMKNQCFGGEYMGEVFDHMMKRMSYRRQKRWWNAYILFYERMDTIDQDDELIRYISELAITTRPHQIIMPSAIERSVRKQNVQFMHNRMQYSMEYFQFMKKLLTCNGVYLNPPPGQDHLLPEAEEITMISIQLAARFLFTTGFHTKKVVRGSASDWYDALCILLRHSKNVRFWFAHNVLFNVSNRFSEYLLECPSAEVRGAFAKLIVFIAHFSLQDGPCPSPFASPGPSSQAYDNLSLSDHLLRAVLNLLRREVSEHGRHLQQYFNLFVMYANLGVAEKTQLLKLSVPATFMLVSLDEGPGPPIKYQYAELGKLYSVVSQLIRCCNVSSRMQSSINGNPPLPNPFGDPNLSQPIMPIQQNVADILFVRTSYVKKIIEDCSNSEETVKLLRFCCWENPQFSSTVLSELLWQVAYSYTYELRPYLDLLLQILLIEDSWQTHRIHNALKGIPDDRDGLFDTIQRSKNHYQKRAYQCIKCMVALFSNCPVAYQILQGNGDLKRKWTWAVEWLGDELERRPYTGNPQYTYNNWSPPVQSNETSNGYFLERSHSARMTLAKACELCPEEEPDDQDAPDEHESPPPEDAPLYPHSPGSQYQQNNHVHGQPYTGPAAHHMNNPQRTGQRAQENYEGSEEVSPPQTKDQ
protocol details: Steady-state enzyme inhibition kinetics of USP9X
Assay type: biochemical
Give bare numbers, in µM.

Take a look at these entries with their results.
> print(dat)
                                   molecule  measurement.type  observed.result
1  CN1CCOc2ccc(c(F)c2)C(=O)NCc2ccc(F)c(c2)C(=O)N[C@@H](CC(C)(C)C)C(=O)Nc2ccc(cc2)CCN(C)C(=O)CC(C)(C)CC1=O [Compound 11A]                KS             0.91
2  CN1CCOc2ccc(cc2)C(=O)NCc2ccc(F)c(c2)C(=O)N[C@@H](CC(C)(C)C)C(=O)Nc2ccc(cc2)CCN(C)C(=O)CC(C)(C)CC1=O                KS             1.87
3  CC(C)(C)C[C@@H]1NC(=O)c2cccc(c2)CNC(=O)c2ccc(cc2)OCCNC(=O)CC(C)(C)CC(=O)N[C@H](C(=O)O)Cc2ccc(cc2)NC1=O                KS             0.95

Consider the record given below.
Input line: Looking for the measured KS of CN1CCOc2ccc(cc2)C(=O)NCc2cccc(c2)C(=O)N[C@@H](CC(C)(C)C)C(=O)Nc2ccc(cc2)CCN(C)C(=O)CC(C)(C)CC1=O , can you help?
Output line: 1.2

---

Give IC50 for every item shown.
measurement target: UniProtKB Q93008
protocol details: USP9X enzyme activity assay, ubiquitin-rhodamine110 substrate
conditions used: read-out: USP9X IC50/UM; Table 8
Answers are plain numbers, in nM.

> print(dat)
                                item.smiles  measurement.target  measurement.type  units  observed.result
1  CNCCOc1ccc(C(=O)NCc2ccc(F)c(C(=O)N[C@@H](CC(C)(C)C)C(=O)Nc3ccc(CCC(=O)O)cc3)c2)cc1    UniProtKB Q93008              IC50     nM              360
2  CN(C)CCOc1ccc(C(=O)NCc2cccc(C(=O)N[C@@H](CC(C)(C)C)C(=O)Nc3ccc(CCN4CCOCC4)cc3)c2)cc1    UniProtKB Q93008              IC50     nM              120
3  COC(=O)c1cc(NC(=O)[C@H](CC(C)(C)C)NC(=O)c2cccc(CNC(=O)c3ccc(OCCN(C)C)cc3)c2)ccc1C    UniProtKB Q93008              IC50     nM               66
4  CNC(=O)CCc1ccc(NC(=O)[C@H](CC(C)(C)C)NC(=O)c2cccc(CNC(=O)c3ccccc3)c2)cc1    UniProtKB Q93008              IC50     nM             2100

Give me IC50 for each of these molecules, listed below.
1. CC(C)(C)C[C@H](NC(=O)c1cccc(CNC(=O)c2ccccc2)c1)C(=O)Nc1ccc(CCC(=O)O)cc1
2. CN(C)CCNC(=O)[C@H](CC(C)(C)C)NC(=O)c1cccc(CNC(=O)c2ccc(OCCN(C)C)cc2)c1
3. COc1ccc(C(=O)NCc2cccc(C(=O)N[C@@H](CC(C)(C)C)C(=O)Nc3ccc(CCC(=O)O)cc3)c2)cc1
4. CNCCOc1ccc(C(=O)NCc2cccc(C(=O)N[C@@H](CC(C)(C)C)C(=O)Nc3ccc(CCNC(=O)CC(C)(C)CC(=O)O)cc3)c2)cc1

Output line:
[7000, 23000, 4700, 180]

---

System: SK-BR3 breast cancer cells
protocol details: WST-1 cell viability assay
Format: cell-based
conditions used: Homo sapiens, SK-BR-3, 72-hour treatment, read-out: IC50, inhibiting proliferation
measurement type: IC50 (µM)
Answers are plain numbers, in µM.

Input line: Looking for the measured IC50 of CN1CCOc2ccc(cc2)C(=O)NCc2ccc(F)c(c2)C(=O)N[C@@H](CC(C)(C)C)C(=O)Nc2ccc(cc2)CCN(C)C(=O)CC(C)(C)CC1=O [Compound 7A] , can you help?
Output line: 2.7

---

measurement target: USP9X (Homo sapiens (Human))
protocol details: Biacore T200 surface plasmon resonance binding to immobilized USP9X
conditions used: 25° C.; read-out: dissociation equilibrium constant from maximum response vs concentration, single site
measurement type: Kd (nM)
One number for each entry, in nM.

Input line: I'm curious: which Kd was measured for CC(C)(C)C[C@@H]1NC(=O)c2cccc(c2)CNC(=O)c2ccc(cc2)OCCNC(=O)CC(C)(C)CC(=O)N[C@H](C(=O)O)Cc2ccc(cc2)NC1=O [Compound 2A] tested on USP9X (Homo sapiens (Human))?
Output line: 1900

---

measurement target: USP9X (Homo sapiens (Human), UniProt Q93008)
protocol details: Steady-state enzyme inhibition kinetics of USP9X
Assay type: biochemical
measurement type: α
Numbers only.

> print(dat)
                                   molecule  measurement.type  observed.result
1  CC(C)(C)C[C@@H]1NC(=O)c2cccc(c2)CNC(=O)c2ccc(cc2)OCCNC(=O)CC(C)(C)CC(=O)N[C@H](C(=O)O)Cc2ccc(cc2)NC1=O                 α             1.73
2  CN1CCOc2ccc(cc2)C(=O)NCc2cccc(c2)C(=O)N[C@@H](CC(C)(C)C)C(=O)Nc2ccc(cc2)CCN(C)C(=O)CC(C)(C)CC1=O                 α              2.3
3  CN1CCOc2ccc(c(F)c2)C(=O)NCc2ccc(F)c(c2)C(=O)N[C@@H](CC(C)(C)C)C(=O)Nc2ccc(cc2)CCN(C)C(=O)CC(C)(C)CC1=O [Compound 11A]                 α                2

Consider the record given below.
Input line: I'm curious: which α was measured for CN1CCOc2ccc(cc2)C(=O)NCc2ccc(F)c(c2)C(=O)N[C@@H](CC(C)(C)C)C(=O)Nc2ccc(cc2)CCN(C)C(=O)CC(C)(C)CC1=O tested on USP9X (Homo sapiens (Human), UniProt Q93008)?
Output line: 1.85

---

measurement target: USP9X (Homo sapiens (Human), UniProt Q93008)
protocol details: Steady-state enzyme inhibition kinetics of USP9X
Type: biochemical
conditions used: from the slope of the 1/Δ intercept vs 1/[I] plot; read-out: KI, nM (1)
Give Ki for every item shown.

Take a look at these entries with their results.
> print(dat)
                                   compound  observed.result
1  CN1CCOc2ccc(cc2)C(=O)NCc2ccc(F)c(c2)C(=O)N[C@@H](CC(C)(C)C)C(=O)Nc2ccc(cc2)CCN(C)C(=O)CC(C)(C)CC1=O           9.4 nM
2  CN1CCOc2ccc(cc2)C(=O)NCc2cccc(c2)C(=O)N[C@@H](CC(C)(C)C)C(=O)Nc2ccc(cc2)CCN(C)C(=O)CC(C)(C)CC1=O           6.7 nM
3  CN1CCOc2ccc(c(F)c2)C(=O)NCc2ccc(F)c(c2)C(=O)N[C@@H](CC(C)(C)C)C(=O)Nc2ccc(cc2)CCN(C)C(=O)CC(C)(C)CC1=O [Compound 11A]             7 nM

Input line: Looking for the measured Ki of CC(C)(C)C[C@@H]1NC(=O)c2cccc(c2)CNC(=O)c2ccc(cc2)OCCNC(=O)CC(C)(C)CC(=O)N[C@H](C(=O)O)Cc2ccc(cc2)NC1=O , can you help?
Output line: 120 nM
